The reader will find reported Pore Volume values listed item by item below.
# assay.details: Pore volume by nitrogen gas adsorption (BJH method, BELSORP-mini II)
# Assay type: physicochemical
# conditions: total pore volume Vp, nitrogen adsorption at 77.3 K

Study these solved cases before continuing.
{"compound": "O=C([O-])CC(O)(CC(=O)[O-])C(=O)[O-].O=C([O-])CC(O)(CC(=O)[O-])C(=O)[O-].[Ca+2].[Ca+2].[Ca+2] [TCC, Tricalcium citrate]", "Pore Volume": "14.2 10^−3 cm^3/g"}
{"compound": "O.O=P([O-])(O)O.O=P([O-])(O)O.[Ca+2] [MCPM, Monocalcium phosphate monohydrate]", "Pore Volume": "23 10^−3 cm^3/g"}
{"compound": "O=P([O-])([O-])OP(=O)([O-])[O-].[Mg+2].[Mg+2] [MgPP, Magnesium pyrophosphate]", "Pore Volume": "7.1 10^−3 cm^3/g"}

Provide only the value of recorded Pore Volume for O.O.O.O.O=P([O-])([O-])[O-].O=P([O-])([O-])[O-].[Mg+2].[Mg+2].[Mg+2] [TMP, Trimagnesium phosphate tetrahydrate] 16 10^−3 cm^3/g

---

# assay.details: Pore volume by nitrogen gas adsorption (BJH method, BELSORP-mini II)
# Type: physicochemical
# conditions: total pore volume Vp, nitrogen adsorption at 77.3 K
The reader will find reported Pore Volume values listed item by item below.

Study these solved cases before continuing.
{"compound": "O=P([O-])([O-])OP(=O)([O-])[O-].[Na+].[Na+].[Na+].[Na+] [TSPP, Tetrasodium pyrophosphate]", "experimental.result": "3.3 10^−3 cm^3/g"}
{"compound": "O.O.O=P([O-])([O-])O.[Ca+2] [DCPD, Dicalcium phosphate dihydrate]", "experimental.result": "5.3 10^−3 cm^3/g"}

Provide only the value of recorded Pore Volume for O=P(O)(O)OP(=O)(O)OP(=O)(O)O [STPP(V), Sodium tripolyphosphate, reference compound] 1.1 10^−3 cm^3/g

Provide only the value of recorded Pore Volume for O=P([O-])(O)O.O=P([O-])(O)O.[Mg+2] [MSPA, Monomagnesium phosphate anhydrate] 4.5 10^−3 cm^3/g

Provide only the value of recorded Pore Volume for O=P([O-])([O-])OP(=O)([O-])[O-].O=P([O-])([O-])OP(=O)([O-])[O-].O=P([O-])([O-])OP(=O)([O-])[O-].[Fe+3].[Fe+3].[Fe+3].[Fe+3] [FePP, Iron-III-pyrophosphate] 30 10^−3 cm^3/g

Provide only the value of recorded Pore Volume for O=C([O-])[O-].[Ca+2] [CaCO3, Calcium carbonate] 9.0 10^−3 cm^3/g

Provide only the value of recorded Pore Volume for [Mg+2].[OH-].[OH-] [Mg(OH)2, Magnesium hydroxide] 18.2 10^−3 cm^3/g

---

# assay.details: Baking trials with ready-to-eat baking mixture (lemon cake) in a microwave oven
# conditions: 2 parts by weight additive, 600 watts, 140 seconds
# Procedure: A ready-to-eat baking mixture for lemon cakes from […] was used as the basic recipe. […] Whole egg and sugar were put into a mixing container and mixed. The powder mixture of the composition (wheat flour, cooking salt and so forth) was slowly mixed in. Vegetable oil, flavouring substances and alcohol were then slowly added and mixing was effected for 12 minutes. After that baking raising agent was added and mixed at a medium stage for a further 2 minutes. […]
measurement.type: ΔT (temperature difference between crust temperature and crumb temperature)
Put down the number, then write its unit next to it.

Study these solved cases before continuing.
{"molecule": "O=P([O-])([O-])[O-].[Fe+3] [FeOP, Iron-III-orthophosphate]", "experimental.result": "15.9 °C"}
{"molecule": "O=P([O-])([O-])OP(=O)([O-])[O-].O=P([O-])([O-])OP(=O)([O-])[O-].O=P([O-])([O-])OP(=O)([O-])[O-].[Fe+3].[Fe+3].[Fe+3].[Fe+3] [FePP, Iron-III-pyrophosphate]", "experimental.result": "26.4 °C"}
{"molecule": "O=P([O-])([O-])OP(=O)([O-])[O-].[Mg+2].[Mg+2] [MgPP, Magnesium pyrophosphate]", "experimental.result": "19.1 °C"}

Attention now shifts to the item below.
Provide only the value of recorded ΔT (temperature difference between crust temperature and crumb temperature) for O=P([O-])(O)OP(=O)([O-])O.[Ca+2] [CAPP, Acid calcium pyrophosphate] 21.2 °C

The measurements presented in this section are drawn from patent US10231463B2.
